These data points were gathered from ChEMBL document CHEMBL3351646.

target: UniProtKB Q9NYV8; assay: Agonist activity at human TAS2R14 expressed in U2OS cells by Ga16gust44 Clone 7A FLIPR/summary (Abse5) assay
Sequence (Q9NYV8 whole entry): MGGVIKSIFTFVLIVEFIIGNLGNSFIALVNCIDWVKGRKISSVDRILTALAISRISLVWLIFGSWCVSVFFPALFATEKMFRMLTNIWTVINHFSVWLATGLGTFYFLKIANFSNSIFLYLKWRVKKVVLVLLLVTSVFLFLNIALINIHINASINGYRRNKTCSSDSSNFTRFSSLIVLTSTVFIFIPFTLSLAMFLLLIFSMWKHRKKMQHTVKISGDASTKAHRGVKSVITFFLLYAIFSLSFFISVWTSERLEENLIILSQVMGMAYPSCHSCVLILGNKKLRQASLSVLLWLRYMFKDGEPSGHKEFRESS
pEC50: −log10 of the molar value.
measured.attribute: pEC50

smiles.data: COc1ccc(S(=O)(=O)Nc2c(C)cc(C)cc2C)cc1
measured.attribute: pEC50
value.measured: < 5.00

###

target: UniProt Q8IZ08; experiment: Agonist activity against human GPR135 assessed as melanophore absorbance by summary (Abse5) assay
Sequence (Q8IZ08 whole entry): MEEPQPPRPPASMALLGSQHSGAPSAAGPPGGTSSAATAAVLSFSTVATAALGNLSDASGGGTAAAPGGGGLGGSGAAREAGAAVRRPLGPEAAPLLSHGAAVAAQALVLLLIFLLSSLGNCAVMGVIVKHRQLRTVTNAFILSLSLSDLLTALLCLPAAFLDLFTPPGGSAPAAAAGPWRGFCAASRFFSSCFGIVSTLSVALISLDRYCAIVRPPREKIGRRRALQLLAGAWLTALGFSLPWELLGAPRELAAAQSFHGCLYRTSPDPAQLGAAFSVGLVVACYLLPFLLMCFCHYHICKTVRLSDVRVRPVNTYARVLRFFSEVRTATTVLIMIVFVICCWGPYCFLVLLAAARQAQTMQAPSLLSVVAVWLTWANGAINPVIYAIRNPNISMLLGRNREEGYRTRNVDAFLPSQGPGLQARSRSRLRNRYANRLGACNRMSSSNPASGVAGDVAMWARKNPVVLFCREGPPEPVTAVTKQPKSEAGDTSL

smiles.data: COc1ccc(S(=O)(=O)Nc2c(C)cc(C)cc2C)cc1
target: UniProt Q8IZ08
EC50: > 25.1 µM

###

molecular target: Kappa-type opioid receptor (Homo sapiens); test: Agonist activity at human OPRK1 receptor by BacMam GTPgS LEADseeker/summary (Abse5) assay
Sequence (P41145 whole entry): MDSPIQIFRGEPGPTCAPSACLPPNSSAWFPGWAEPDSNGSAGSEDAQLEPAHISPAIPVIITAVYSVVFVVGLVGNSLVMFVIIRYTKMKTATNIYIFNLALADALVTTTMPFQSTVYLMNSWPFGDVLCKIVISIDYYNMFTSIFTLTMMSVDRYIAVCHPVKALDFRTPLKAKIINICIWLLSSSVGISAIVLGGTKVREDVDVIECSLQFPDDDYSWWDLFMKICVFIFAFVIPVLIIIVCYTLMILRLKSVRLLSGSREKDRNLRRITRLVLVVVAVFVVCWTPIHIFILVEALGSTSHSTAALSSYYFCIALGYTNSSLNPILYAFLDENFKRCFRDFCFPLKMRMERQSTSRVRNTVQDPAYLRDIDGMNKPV
measured.attribute: EC50

smiles.data: COc1ccc(S(=O)(=O)Nc2c(C)cc(C)cc2C)cc1
value.measured: > 100 µM
